Each recorded value in this set is attributed to ChEMBL document CHEMBL4145467.

# Subject Of Test: Glycogen synthase kinase 3 beta (Sus scrofa)
# Sequence (B2LUN4 whole entry): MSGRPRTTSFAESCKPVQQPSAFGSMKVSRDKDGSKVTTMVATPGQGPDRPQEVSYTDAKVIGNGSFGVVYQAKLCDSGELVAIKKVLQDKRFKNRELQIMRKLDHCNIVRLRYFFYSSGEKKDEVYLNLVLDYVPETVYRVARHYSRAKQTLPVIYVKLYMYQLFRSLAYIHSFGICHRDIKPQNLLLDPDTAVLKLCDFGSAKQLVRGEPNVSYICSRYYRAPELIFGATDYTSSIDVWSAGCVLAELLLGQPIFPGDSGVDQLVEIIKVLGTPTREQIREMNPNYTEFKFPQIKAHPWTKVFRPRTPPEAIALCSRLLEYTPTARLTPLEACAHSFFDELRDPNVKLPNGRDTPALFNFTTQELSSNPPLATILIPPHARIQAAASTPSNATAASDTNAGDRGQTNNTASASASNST
Reported Metric: IC50
Just so you know, I need the unit written after the number.

q: I'd like to know its IC50. The compound in question is CCOC(=O)c1c2[nH]c3ccccc3c2c(-c2ccc(NC(=O)CCN(C)C)cc2)c2c(=O)[nH][s+]([O-])c12 (stereo unspecified)
a: 2800 nM

---

# Subject Of Test: Glycogen synthase kinase-3 alpha (Homo sapiens)
# Sequence (P49840 whole entry): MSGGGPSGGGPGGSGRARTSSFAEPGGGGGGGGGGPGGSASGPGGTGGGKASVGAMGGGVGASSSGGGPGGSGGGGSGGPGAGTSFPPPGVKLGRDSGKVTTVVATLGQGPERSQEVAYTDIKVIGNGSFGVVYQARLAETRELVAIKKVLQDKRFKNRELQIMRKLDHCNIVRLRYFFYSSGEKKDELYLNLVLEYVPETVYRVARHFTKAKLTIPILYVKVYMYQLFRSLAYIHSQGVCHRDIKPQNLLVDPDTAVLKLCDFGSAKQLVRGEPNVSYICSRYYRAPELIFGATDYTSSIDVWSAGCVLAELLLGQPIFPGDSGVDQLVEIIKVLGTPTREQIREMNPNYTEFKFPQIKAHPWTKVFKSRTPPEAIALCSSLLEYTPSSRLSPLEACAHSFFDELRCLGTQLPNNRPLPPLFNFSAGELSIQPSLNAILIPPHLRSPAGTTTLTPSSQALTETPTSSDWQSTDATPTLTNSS
# Experimental Protocol: Inhibition of human GSK3alpha
Reported Metric: IC50 (nM)
The reply should be a number in nM, with the unit left off.

q: I'd like to know its IC50. The compound in question is CCCCC(=O)Nc1n[nH]c2nnc(-c3ccccc3)cc12
a: 4

---

# Experimental Protocol: Inhibition of GSK-3beta (unknown origin)
Reported Metric: IC50

q: I'd like to know its IC50. The molecule in question is COc1ccccc1C1=C(c2cn(CCCNC(=O)OC(C)(C)C)c3ncccc23)C(=O)NC1=O
a: 7 nM

q: How about O=C1NC(=O)C(c2cn(CCCO)c3ncccc23)=C1c1ncc(C(F)(F)F)cc1Cl ?
a: 26 nM

---

# Subject Of Test: Glycogen synthase kinase-3 beta (Homo sapiens, UniProt P49841)
# Sequence (P49841 whole entry): as the sequence (B2LUN4 whole entry) above, with M40V, A59T, S392T, T400A, A402T, T411A counted along it
# Experimental Protocol: Inhibition of recombinant GSK3-beta (unknown origin) assessed as decrease in phosphorylation of CREB at serine-129 in presence of ATP[gamma-33P] by filter binding assay
Reported Metric: IC50 (nM)
The reply should be a number in nM, with the unit left off.

q: API: value(readout= IC50, system= Glycogen synthase kinase-3 beta (Homo sapiens, UniProt P49841), query= Cc1ccc2ncc(C3=C(c4cn5c6c(cccc46)CN(C=O)C(N4CCCCC4)C5)C(=O)NC3=O)n2c1 (stereo unspecified) )
a: 5.2

q: How about CC(C)OC1Cn2cc(C3=C(c4cnc5ccccn45)C(=O)NC3=O)c3cccc(c32)CN1C=O (stereo unspecified) ?
a: 1.3

q: How about O=CN1Cc2cccc3c(C4=C(c5cnc6ccccn56)C(=O)NC4=O)cn(c23)CC1N1CCCCC1 (stereo unspecified) ?
a: 2

q: How about O=CN1Cc2cccc3c(C4=C(c5cnc6ccccn56)C(=O)NC4=O)cn(c23)CC1N1CCOCC1 (stereo unspecified) ?
a: 1.3

q: How about O=CN1Cc2cc(F)cc3c(C4=C(c5cnc6ccccn56)C(=O)NC4=O)cn(c23)CC1N1CCCCC1 (stereo unspecified) ?
a: 1.1

q: How about CN(C)C1Cn2cc(C3=C(c4cnc5ccccn45)C(=O)NC3=O)c3cccc(c32)CN1C=O (stereo unspecified) ?
a: 1.6
